Parameter: bioavailability. Scope: all listed entries.
Test: Rodent pharmacokinetics (rat PK)
Format: in vivo
Conditions: po, dosed intravenously or orally by gavage, plasma, read-out: F % (bioavailability)

// solved cases for bioavailability follow
Would you kindly share the measured bioavailability for COc1ccc2c(c1[C@H]1CCN(C[C@H]3CC[C@H](n4cc5cc(NC(=O)c6cncc(C(F)(F)F)n6)ccc5n4)CC3)C[C@@H]1F)n(C)c(=O)n2C1CCC(=O)NC1=O (stereo partly shown) ?
≤ 5%

Query: bioavailability; subject: Cn1c(=O)n(C2CCC(=O)NC2=O)c2cccc([C@@H]3CCN(C[C@H]4CC[C@H](n5cc6cc(C(=O)Nc7cccc(C(F)(F)F)n7)ccc6n5)CC4)C[C@H]3F)c21 (stereo partly shown)
≤ 5%

May I ask what bioavailability has been recorded for Cn1c(=O)n(C2CCC(=O)NC2=O)c2cccc([C@H]3C[C@H](COC4CCN(C[C@H]5CC[C@H](n6cc(NC(=O)c7cnn8ccc(N9C[C@H]%10C[C@@H]9CO%10)nc78)c(C(F)F)n6)CC5)CC4)C3)c21 (stereo partly shown) ?
≤ 5%

New cases:
What value of bioavailability has been reported for the following compound? CN(C[C@H]1CC[C@H](c2nc3cc(C(C)(C)O)c(NC(=O)c4cccc(C(F)(F)F)c4)cc3s2)CC1)[C@H]1CCN(c2cccc3c2n(C)c(=O)n3C2CCC(=O)NC2=O)C[C@H]1F (single isomer, unassigned)
≥ 5%

What value of measured bioavailability is listed for CN(C[C@H]1CC[C@H](c2cn3cc(NC(=O)c4cncc(C(F)(F)F)n4)ccc3n2)CC1)[C@H]1CCN(c2cccc3c2n(C)c(=O)n3C2CCC(=O)NC2=O)C[C@@H]1F (single isomer, unassigned) ?
≤ 5%

Using the record for CN(C[C@H]1CC[C@H](c2nc3cc(C(C)(C)O)c(NC(=O)c4cccc(C(F)(F)F)n4)cc3s2)CC1)[C@@H]1CCN(c2cccc3c2n(C)c(=O)n3C2CCC(=O)NC2=O)C[C@@H]1F (single isomer, unassigned) , report its bioavailability.
≥ 5%

Which bioavailability is listed for Cn1c(=O)n(C2CCC(=O)NC2=O)c2cccc([C@@H]3CCN(C[C@H]4CC[C@H](n5cc6cc(NC(=O)c7cncc(C(C)(C)C)n7)ncc6n5)CC4)C[C@H]3F)c21 (stereo partly shown) ?
≤ 5%

Look up bioavailability for this compound: COc1cc2nn([C@H]3CC[C@H](CN4CCC5(CN(c6cccc7c6n(C)c(=O)n7C6CCC(=O)NC6=O)C5)C(F)(F)C4)CC3)cc2cc1NC(=O)c1cncc(C)c1 (stereo partly shown)
≤ 5%

Any idea what bioavailability was measured for Cn1c(=O)n(C2CCC(=O)NC2=O)c2cccc(N3CC4(CCN(C[C@H]5CC[C@H](c6nc7cc(C(C)(C)O)c(NC(=O)c8cncc(C#N)c8)cc7s6)CC5)CC4(F)F)C3)c21 (stereo partly shown) ?
≥ 5%

Query: bioavailability; subject: Cn1c(=O)n(C2CCC(=O)NC2=O)c2cccc([C@@H]3CCN(C[C@H]4CC[C@H](n5cc6cc(NC(=O)c7cncc(C(F)(F)F)n7)c(Cl)cc6n5)CC4)C[C@H]3F)c21 (stereo partly shown)
≤ 5%
